Attribution: ChEMBL document CHEMBL1131573

Assay: Binding affinity against c-Src tyrosine kinase SH2 domain expressed as ratio of IC50 of test compound over IC50 of AcYEEIE
reported.metric: Ratio
Answers are plain numbers.

// input: 3 compounds below; output: Ratio for each
1. CCCCCN(C)C(=O)[C@H](CCC(=O)O)NC(=O)[C@H](Cc1ccc(OP(=O)(O)O)cc1)NC(C)=O
2. CCCCCN(CCCCC)C(=O)[C@H](CCC(=O)O)NC(=O)[C@H](Cc1ccc(OP(=O)(O)O)cc1)NC(=O)C(F)(F)F
3. CC(=O)N[C@@H](Cc1ccc(OP(=O)(O)O)cc1)C(=O)N[C@@H](CCC(=O)O)C(=O)N(C)CCCc1c[nH]c2ccccc12

Result ::
1. 12
2. 57.2
3. 11.6

Query :: Hello, please tell me recorded Ratio for this one: `CCCCCN(CCCCC)C(=O)[C@H](CCC(=O)O)NC(=O)[C@H](Cc1ccc(OP(=O)(O)O)cc1)NC(=O)CCc1ccccc1`
Result :: 10.8
